Target: DENND5A; also: test concentration or dose not given here
Assay: reporter assay of Huesken 2005
Conditions: siRNA
Oligonucleotides are written 5' to 3', each unit as a sugar letter and its base; * is a phosphorothioate linkage, no mark a phosphodiester; rarer units and linkages stand in square brackets, end groups in braces. Plain capitals give the bases only. d = 2'-deoxy (DNA); r = 2'-OH (RNA)
Recorded endpoint: normalised inhibition (eCFP-eYFP dual reporter) (%)

>>> measurement("sense rArArCrArGrGrGrArGrCrArArArUrGrCrArArAdTdT / antisense rUrUrUrGrCrArUrUrUrGrCrUrCrCrCrUrGrUrUdGdG")
49.2
>>> measurement("sense rGrGrCrUrArArCrCrUrCrUrGrCrUrUrUrGrUrGdTdT / antisense rCrArCrArArArGrCrArGrArGrGrUrUrArGrCrCdTdC")
70.2
>>> measurement("sense rUrGrCrCrGrCrArArUrArArGrArCrCrArArGrAdTdT / antisense rUrCrUrUrGrGrUrCrUrUrArUrUrGrCrGrGrCrAdTdT")
69.3
>>> measurement("sense rGrArGrGrUrGrGrArUrGrArGrArGrGrCrCrArUdTdT / antisense rArUrGrGrCrCrUrCrUrCrArUrCrCrArCrCrUrCdAdG")
74.4
>>> measurement("sense rCrCrArGrCrUrCrArCrUrCrArUrGrCrCrUrCrCdTdT / antisense rGrGrArGrGrCrArUrGrArGrUrGrArGrCrUrGrGdCdA")
64.4
>>> measurement("sense rGrArCrUrGrArArGrGrArGrArArArArUrUrUrUdTdT / antisense rArArArArUrUrUrUrCrUrCrCrUrUrCrArGrUrCdGdT")
90.8
>>> measurement("sense rArGrCrUrGrArArGrArGrGrCrUrGrCrGrGrGrCdTdT / antisense rGrCrCrCrGrCrArGrCrCrUrCrUrUrCrArGrCrUdTdG")
54.9
>>> measurement("sense rCrUrGrGrArUrUrGrCrCrCrUrGrCrUrGrGrCrUdTdT / antisense rArGrCrCrArGrCrArGrGrGrCrArArUrCrCrArGdTdG")
63.7
>>> measurement("sense rGrArCrCrCrArGrArUrGrUrUrUrGrCrArUrCrUdTdT / antisense rArGrArUrGrCrArArArCrArUrCrUrGrGrGrUrCdTdC")
71.9
>>> measurement("sense rCrUrUrGrArGrArGrCrUrArCrArUrArUrArCrAdTdT / antisense rUrGrUrArUrArUrGrUrArGrCrUrCrUrCrArArGdGdG")
74.2
>>> measurement("sense rArUrUrUrGrGrGrUrUrUrGrCrCrCrUrCrArCrAdTdT / antisense rUrGrUrGrArGrGrGrCrArArArCrCrCrArArArUdGdT")
72.2
>>> measurement("sense rUrCrUrGrArUrGrUrArCrUrUrUrCrCrArCrUrGdTdT / antisense rCrArGrUrGrGrArArArGrUrArCrArUrCrArGrAdCdT")
47.9
>>> measurement("sense rCrUrUrGrCrCrArCrArGrUrUrCrCrCrCrArArCdTdT / antisense rGrUrUrGrGrGrGrArArCrUrGrUrGrGrCrArArGdTdC")
50.6
>>> measurement("sense rCrUrGrUrCrGrGrCrArUrUrArUrGrCrCrArGrUdTdT / antisense rArCrUrGrGrCrArUrArArUrGrCrCrGrArCrArGdCdT")
73
>>> measurement("sense rGrCrArCrUrUrCrCrArUrArArGrCrCrUrGrArGdTdT / antisense rCrUrCrArGrGrCrUrUrArUrGrGrArArGrUrGrCdTdT")
78.7
>>> measurement("sense rCrArGrGrArUrArUrGrArGrGrCrArCrArUrCrCdTdT / antisense rGrGrArUrGrUrGrCrCrUrCrArUrArUrCrCrUrGdAdA")
46.7

Cited source: the OligoGym collection
